procedureText: protein stability index of a GFP-peptide fusion (yeast GPS) (PSI 1-4); higher = more stable; sorted into four equal gates, so the index is relative within each strain
appliedConditions: ubr1∆
// reported protein stability index for each item listed
valueKind: protein stability index

1. FEQTAFSRHAQQQTSTF [SIR4] : 2.01
2. NGAVGKREGKTRLLNIV [ISW2] : 2.97
3. ALEDEERDEILTLTDSQ [BRR2] : 3.12
4. TNHVLEVFSVLGIEAAR [RPO31] : 3.02
5. KFEPLYPREEEEDYNEF [PRP8] : 3.37
6. STLKSFFTNPNKKRPSS [YOR098C/NUP1] : 2.91
7. SELAGDEELEAEQIDVF [PRP8] : 2.75
8. PYTGWVDSKTKEPVDDK [FAS2] : 3.17
9. DVEDDDKETQLKKRAVS [POP7] : 2.5
10. TPSTETAASVFKELCYE [PRE3] : 1.84
11. NVGLPILKSLKNRSNRK [YOR098C/NUP1] : 3.11
12. VSSTIPRETIPFLHLRK [FAS2] : 2.6
13. FKLGKFNYVAVGDVSNL [QCR2] : 2.83
14. DAYYDLELRNSVMDDIL [PRP8] : 3.09

----------
procedureText: protein stability index of a GFP-peptide fusion (yeast GPS) (PSI 1-4); higher = more stable; sorted into four equal gates, so the index is relative within each strain
appliedConditions: pdr5∆
valueKind: protein stability index

1. MCGVIVKQYNKKWPQFY [SIN4] : 1.99
2. IPMDFIRNVLVTVDQYV [SSN2] : 1.58
3. MEYLSGGEKTVAALALL [SMC1] : 2.41
4. ILRKSFDFLMNMPNCDY [RPN2] : 1.1
5. QAQAQAQAQAQAQAQAQ [GAL11] : 3.1
6. HYMVHEALNLLKFFLVD [LIN1] : 1.7
7. MAPYLPGSRASSRFIKG [RPN2] : 2.66
8. AAKTRSYNWGAKAKRRH [RPL37A] : 3.39

----------
procedureText: protein stability index of a GFP-peptide fusion (yeast GPS) (PSI 1-4); higher = more stable; sorted into four equal gates, so the index is relative within each strain
appliedConditions: ubr1∆
// reported protein stability index for each item listed
valueKind: protein stability index

1) IFDGNYGESDIHFREHQ [YMR129W/POM152] : 3.05
2) VISNLVPKLESSRTKFW [YJL039C/NUP192] : 2.69
3) YHGNECEINYYEILLKI [SRB8] : 2.4
4) FVDLNEKELQNEIKQLG [SRB4] : 2.78
5) RLRQFNLQPISTPENVP [SMC4] : 1.73
6) PGGQAALRALARSGLRI [RPS14A] : 1.92
7) YIDEMYNHNDGGDGRDY [RRI1] : 2.75
8) AFVPKKRKTNIIMFVGL [SRP54] : 2.26
9) NCFFDVIVPQIVLDEVR [DIS3] : 1.47
10) TGVVYNVTKSSVGVIIN [RPL21A] : 2.18
11) VASLSKRNKLLTIFDSV [YJL039C/NUP192] : 1.89
12) IPAWFLNRQNDITDGKD [RPS18A] : 2.87
13) AASTPTTTATPHANPIT [PGD1] : 2.92
14) FAWSKPSTGSNLQQQQQ [YGR119C/NUP57] : 2.95

----------
// reported protein stability index for each item listed
procedureText: protein stability index of a GFP-peptide fusion (yeast GPS) (PSI 1-4); higher = more stable; sorted into four equal gates, so the index is relative within each strain
appliedConditions: pdr5∆
valueKind: protein stability index

1) NLQPISTPENVPRLFDL [SMC4] : 2.93
2) GRPQRKMMSFQANPTEE [RPB5] : 3.2
3) VLKEKDVPAYNVTSFMP [SRB8] : 3.01
4) YRRLFAKRLIHGTSTSA [CDC53] : 1.36
5) IKNLGLPSDRCSKAMGD [RPP1] : 3.32
6) LDKIYTRPISSQVLDLA [SMC2] : 2.01
7) DNVVRFLNEARDKAGRL [RPO21] : 1.61
8) GFVRNSFFSGLSPPEFL [RPO31] : 2.95
9) EKCKEINVETVYDIMAL [BRR2] : 2.44
10) LTNILRMMGCVKKQKSA [FAS2] : 2.1
11) NRTVLLKIFKIFCIDLE [SRB8] : 2.15
12) SFLDRKRAKEFITTLLK [SIN4] : 2.21
13) RLFIKPGQKMSLFSHRK [BRN1] : 3.06
14) NLPEHIVPGTYIQERNP [RPS10A] : 2.62
15) VSNENKKNIDYQNRSTR [RRI1] : 3.04
16) EEITCALDYLIPPPMPK [MED7] : 2.73
17) RAVLKSFLESVIRDSVT [HHF1] : 2.44
18) EVPEGVTVSIKSRIVKV [RPL9A] : 1.86
19) FDTVSNKLFTEPIKLEP [YMR129W/POM152] : 2.7
20) PNVSDKYYLEESNVNDS [NUT1] : 2.85
21) FEGWGHEYIRHLALEIG [RPN1] : 2.06
22) LNSNNSIIGNKNNNYTW [REC8] : 2.76
23) PTEMEPDLDTECFISMQ [SWI1] : 3.39
24) HNKLIQFGNACISLSGV [SSN2] : 2.84
25) LQAFGESESTTNVYSKD [RPB3] : 2.1
26) AGENAPSIVFIDEIDAI [RPT2] : 2.46
27) FKIHTAKVKKTGEFDFE [RPT4] : 3.06
28) DVDMEDRNLTEFDSTDT [RRI1] : 3.09
29) QGNPKKRPGKLSDYIPG [CYT1] : 3.24
30) YEMVIREKNALKRLAWQ [ISW2] : 2.5
31) EMLEENFPEASKLSEHL [YCG1] : 2.29

----------
procedureText: protein stability index of a GFP-peptide fusion (yeast GPS) (PSI 1-4); higher = more stable; sorted into four equal gates, so the index is relative within each strain
appliedConditions: doa10∆
valueKind: protein stability index

1) KLHFKDTKPFLNKDSTN [NUT1] : 2.51
2) IQCQIDKLYIHFVQEEP [RGR1] : 2.09
3) NVKNYSTTQEILEFITA [RPC34] : 1.28
4) IASAGKDGEIMLWNLAA [ASC1] : 2.92
5) PRRYGKGSRQCRVCSSH [RPS29A] : 2.81
6) NIEEMARVILYLKNVLF [SIN4] : 2.23
7) SSTIDAPAFHTSGKVEL [SRB8] : 2.9
8) SPIGFTNSPQISVTRQV [SMC2] : 2.92
9) KLTILQEGIEAIATTVI [RET1] : 2.79
10) FSKGDADVLVDRVVSSD [SRP72] : 3.28
11) ITVTAKQQPTMQANKLD [SWI3] : 3.19
12) IVFDNTDKSNSPIGFTN [SMC2] : 3.1
13) LLQKMLNLLNYQELFIQ [YML103C/NUP188] : 2.4
14) ITSINVENDTFIERNFT [FAS2] : 3.01

----------
procedureText: protein stability index of a GFP-peptide fusion (yeast GPS) (PSI 1-4); higher = more stable; sorted into four equal gates, so the index is relative within each strain
appliedConditions: san1∆
// reported protein stability index for each item listed
valueKind: protein stability index

1. MQANTNALRRNLLKDEG [SSN3] : 2.98
2. EYKSLFVVGVDNVSSQQ [RPP0] : 3.29
3. DDIYDISLLKNRRKQSF [RPN4] : 3.13
4. KLLATSTKIIMLLLNDS [SRB8] : 1.48
5. NGASVPINLHPSKLVIT [RPL26A] : 1.96
6. MPPKKSWRNITNLSGGE [SMC4] : 2.64
7. FTRIFLPIYDSLMSSQN [SIR3] : 1.99
8. NERELNVFARLSRLLSL [RPC82] : 2.79

----------
procedureText: protein stability index of a GFP-peptide fusion (yeast GPS) (PSI 1-4); higher = more stable; sorted into four equal gates, so the index is relative within each strain
appliedConditions: doa10∆
valueKind: protein stability index

1) WNLNQFQIEADFIGHNS [ASC1] : 2.79
2) SKEWFQLDDEDFDLLNK [FAS1] : 3.03
3) IILLGVLEDCRHLPMYT [ITC1] : 1.37
4) AGTKITICIELKTVLHN [RGR1] : 1.18
5) FDGFLFGSRVMIAKEVK [FAS1] : 2.58
6) NYLKYLEYWCNPPYSQC [SOH1] : 2.14
7) SELQPQNRSLQEHNIQD [SNF2] : 2.81
8) LKENNAILQKSLKNVTE [YIL149C/MLP2] : 2.67
9) ITATLVGTVRCEEEKKT [CSL4] : 1.54
10) LWINYIKELLNITKNLK [POP4] : 1.34
11) GKLFSDIKVLKRQLIKE [YIL149C/MLP2] : 3.01
12) FETFLVDVNNKFIALCE [SIN4] : 2.94
13) TQATSEDGTSASFQIVE [RPC19] : 2.88
14) ARKETYSSYIYKVLKQT [HTB1] : 2.89
15) LTNDTFEKKLSIIKAKL [YML103C/NUP188] : 2.8
16) PGAKPLQVGDVVSTTAV [FAS1] : 2.51
17) LPQCIIPSSYIKRTDEG [ARP7] : 2.77
18) VAALKAVGAHSDLLKVL [RPL4A] : 3.21
19) DDPFMTKSGATTSEKQE [GAL11] : 2.97
20) GLRVRGQHTKTTGRRRA [RPS18A] : 2.09
21) QVMEEKLDENNAQLSCI [PUP2] : 3.31
22) NLQPISTPENVPRLFDL [SMC4] : 2.89
23) NELMRWPIVQKTYEPVL [RPN5] : 2.25
24) QRETYDSNESDDDVTPS [YLR335W/NUP2] : 1.99
25) DDIYDISLLKNRRKQSF [RPN4] : 2.91
26) PLKTELEANGRSLEKVN [SSN2] : 3.19
27) GIFNLLNTLFNPVTLNE [NUT1] : 2.52
28) FFLQRKLRSELGYKDTS [BRR2] : 2.11
29) EIGITQQRIVSAYEASM [RRP4] : 3.04
30) RLQGIKLLDNIQEYQLC [COR1] : 2.46
31) VEKTEKPKKPKGRAYKR [RPS30A] : 3.16
32) NLRLLNSIDSTSRIELE [ECM29] : 2.91
33) LLNLPPFQVSSFVKETK [SRB8] : 1.94
34) FGHLMHYGNEHIRRMVP [RPN1] : 1.71
35) SPTSPSYSPTSPSYSPT [RPO21] : 2.74
36) KVSSASAAASESDVAKQ [RPL16B] : 2.93
37) VVKASELDQFWQEYSSV [SRP14] : 3.04
38) TDGDSILYYDVLFITPD [BRR2] : 2.47
39) GVEVRVTPTKTEVIIRA [RPS3] : 1.75
40) QLKNVQLDSYLVNGFSQ [MED2] : 2.49
41) SEHFLYLAKELNLTGPK [RPN1] : 2.98
42) KSDTVTSASQPFKFGKT [YOR098C/NUP1] : 2.34
43) FTRIFLPIYDSLMSSQN [SIR3] : 2.24
44) TEKLSPLASEESLTNSN [YGL100W/SEH1] : 3.36
45) YEQHIENIEPLDPINLP [PRP8] : 2.38
46) LAMNDDDFLSKKRKAGR [SNF2] : 3.41
47) RDLKPSNLEKLLFINSS [YML103C/NUP188] : 1.93
48) KTTRLLLIIRSLKNTDA [YJL039C/NUP192] : 1.51
49) MTTFRFCRDCNNMLYPR [RPB9] : 2.78
50) TGESEESSSEDDYEDQD [IRR1] : 3.5
51) WKNLVLKLSQAFGSSAT [YJR042W/NUP85] : 2.58
52) EYSPEILQIREEIPSKS [RRP6] : 2.66
53) RLHYYPKDPSNVETYEQ [BRR2] : 3.02
54) SNGLLSIVLLLLSQFGI [YML103C/NUP188] : 1.51
55) KCLVEKSICFENCLNND [SWI1] : 1.81
56) SDAEEEEGEYKNAANTE [ISW2] : 3.06
57) KELQYDNEQNLESDFVT [PRE2] : 2.93
58) TKSSLNDLDYDLIADTI [YML103C/NUP188] : 2.64
59) DRQCMIMDELLSSIAER [DIB1] : 2.7
